target: Gal(b1-3)[Fuc(a1-4)]GlcNAc(b1-3)Gal(b1-4)GlcNAc; assay: glycan array binding signal (z-score within array); higher = stronger binding; settings: glycan notation: IUPAC condensed, linker removed
This excerpt belongs to a sample that is enriched for the strongest signals.
Catalogue of glycan array binding signal (z-score) values

# BINDER, glycan array binding signal (z-score)
rows = [
    ("LlpA1 (Pseudomonas fluorescens), Q4KHC3 (protein) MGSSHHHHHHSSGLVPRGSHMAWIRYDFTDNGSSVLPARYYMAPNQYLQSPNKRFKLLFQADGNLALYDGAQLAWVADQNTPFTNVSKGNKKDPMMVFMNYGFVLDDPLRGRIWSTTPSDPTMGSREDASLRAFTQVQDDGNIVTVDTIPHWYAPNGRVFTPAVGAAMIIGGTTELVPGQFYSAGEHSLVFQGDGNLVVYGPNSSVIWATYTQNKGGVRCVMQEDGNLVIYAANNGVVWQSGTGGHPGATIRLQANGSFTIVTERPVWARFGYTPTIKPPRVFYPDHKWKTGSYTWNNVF", -0.53),
    ("Glycodelin A (Homo sapiens), P09466 (protein) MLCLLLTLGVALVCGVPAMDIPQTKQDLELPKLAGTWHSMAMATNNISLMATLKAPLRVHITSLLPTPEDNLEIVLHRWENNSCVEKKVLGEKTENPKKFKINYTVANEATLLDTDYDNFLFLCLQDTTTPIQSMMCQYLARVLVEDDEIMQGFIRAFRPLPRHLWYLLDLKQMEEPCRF", 1.52),
    ("LTL (Lotus tetragonolobus), P19664 (protein) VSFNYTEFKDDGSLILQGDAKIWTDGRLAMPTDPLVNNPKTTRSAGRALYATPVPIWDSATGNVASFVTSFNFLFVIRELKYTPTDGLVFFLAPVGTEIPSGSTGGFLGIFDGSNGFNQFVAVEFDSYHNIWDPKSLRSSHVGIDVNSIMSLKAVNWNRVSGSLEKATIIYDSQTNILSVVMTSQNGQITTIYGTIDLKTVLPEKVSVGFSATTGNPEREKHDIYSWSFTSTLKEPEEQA", -0.389),
    ("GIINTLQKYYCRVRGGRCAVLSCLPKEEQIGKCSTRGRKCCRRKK [Beta-Defensin 3 (Homo sapiens), P81534]", -0.493),
    ("STA (Solanum tuberosum), Q9S8M0 (protein) NASPPSPSPLPYPQCGMKKGGGKCIKTGECCSIWGWCGTTNAYCSPGYCQKQCPGPYPEGRCGWQANGKSCPTGTGQCCSNGGWCGTTSDYCASKNCQSQCKLPSPPPPPPPPSPPPPSPPSPPPPSPPPPPPPSPPPPSPPPPSPSPPPPPASPPPPPPALPYPQCGIKKGGGKCIKTGECCSIWGWCGTTNAYCSPGYCQKQCPGPYPEGRCGWQANGKSCPTGTGHCCSNAGWCGTTSDYCAPVNCQAQCNTTTLTSPIKNRMRGIESFMLNVV", -0.584),
    ("T7P4 (Tuber borchii) (protein) GSHIGPYMSFYASSEDVRTIEEGGRTWLVGRARRADGSWQDIKLDLDNIIGNRDGHLTWGEQNFTQSASDIRFNFEGSNVPVLRAKLRNAAGGEQESDLNLGERLTNNNGDLVFN", -0.207),
]
